Please provide measured z-score for the entries that follow.
Subject of test: NADPH oxidase 5 (Homo sapiens)
Assay comment: NOX5-dependent H2O2 signal modulators, primary screen, NOX inhibitor project, cell-based, HEK293-NOX5, Amplex Red fluorescence (AID 1161)
Particulars: HEK293-NOX5, ionomycin, 45 min, higher = more signal
Quick one: just the number, no unit, thanks!

Form field: reported z-score of `COCC(=C=CC[C@H](O)c1ccc(OCCO)cc1)C[C@H](O)c1ccccn1`
1.32

Could you share which z-score value was measured for O=C1OCCC=C[C@H]2OC34C=CCN(Cc5ccccc5)C(=O)[C@H]3N(CCO)C(=O)[C@@H]4C12 (some centres undefined) ?
0.869

Returns the measured z-score for the input molecule. Input: `CC(C)CNC(=O)[C@@]1(C)c2ccccc2C(=O)N(Cc2ccc(OC(F)(F)F)cc2)[C@H]1c1ccc(CO)cc1`
1.01

Given the entry `COCCOC(=O)N1C(=O)[C@@]2(c3cc(C#CCCO)ccc31)[C@H](C(=O)N1CCCCCCC1)[C@H]1C(=O)O[C@H](c3ccccc3)[C@H](c3ccccc3)N1[C@@H]2c1ccc(O)cc1` , report its measured z-score.
1.67

Fill in the blank: the reported z-score of `NC(=O)NCC#Cc1ccc2c(c1)[C@]1(C(=O)N2)[C@H](C(=O)N2CCCCCCC2)[C@H]2C(=O)O[C@H](c3ccccc3)[C@H](c3ccccc3)N2[C@@H]1c1ccccc1OCCO` is ____.
0.881

Reported z-score for `CCOC(=O)C1=CC[C@@H](c2ccccc2)N(S(=O)(=O)c2ccc(C)cc2)[C@H]1C` : what is it?
0.0997

# query: z-score of entry `COc1ccc(CCNC(=O)[C@@]2(c3ccc([N+](=O)[O-])cc3)CC(=O)N(C(C)C)[C@@H]2c2ccc(CO)cc2)cc1`
0.24

Could you share which z-score value was measured for `CO[C@H]1COC(=O)[C@H](Cc2ccccc2)NC(=O)CC=C[C@@H](C)[C@H](OC)COC(=O)CC=C[C@@H]1C` ?
0.784

Name the reported z-score value associated with the molecule `CC(C)NC(=O)[C@@]1(Cc2ccccc2I)c2ccccc2C(=O)N(C2CCCCC2)[C@H]1c1ccc(CO)cc1`
-1.42
